Reference source: patent US7262340B2

# Measured on: AtGA2ox1 (Arabidopsis thaliana)
# Construct: made in house; host or cells: E. coli (crude cell lysate)
# Sequence (Q8LEA2 whole entry): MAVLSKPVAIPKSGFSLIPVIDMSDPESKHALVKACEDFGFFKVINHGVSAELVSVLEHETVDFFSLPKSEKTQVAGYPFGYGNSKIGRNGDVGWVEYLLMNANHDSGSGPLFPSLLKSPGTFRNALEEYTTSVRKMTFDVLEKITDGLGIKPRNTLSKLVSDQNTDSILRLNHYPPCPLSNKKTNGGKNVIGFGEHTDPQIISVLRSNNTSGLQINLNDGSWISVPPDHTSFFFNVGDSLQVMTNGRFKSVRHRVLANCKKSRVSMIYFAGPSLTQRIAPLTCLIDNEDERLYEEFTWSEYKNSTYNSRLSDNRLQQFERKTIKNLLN
# Measurement protocol: Incubation of recombinant GA 2-oxidase AtGA2ox1 (E. coli lysate) with 14C-labelled GA substrates
# Assay type: biochemical
# Stated conditions: E. coli cell lysate, 14C-labelled GA substrate and cofactors, 2.5 h, HPLC-radiomonitoring
Quantity: 2β-Hydroxy GA product (% yield)

>>> reported_result("C=C1C[C@]23C[C@H]1CC[C@H]2[C@@]12CC[C@H](O)[C@@](C)(C(=O)O1)[C@H]2[C@@H]3C(=O)O [GA4]")
25
>>> reported_result("C=C1C[C@]23C[C@@]1(O)CC[C@H]2[C@@]12CC[C@H](O)[C@@](C)(C(=O)O1)[C@H]2[C@@H]3C(=O)O [GA1]")
41
>>> reported_result("C=C1C[C@]23C[C@@]1(O)CC[C@H]2[C@@]12CCC[C@@](C)(C(=O)O1)[C@H]2[C@@H]3C(=O)O [GA20]")
50
>>> reported_result("C=C1C[C@]23C[C@H]1CC[C@H]2[C@@]12CCC[C@@](C)(C(=O)O1)[C@H]2[C@@H]3C(=O)O [GA9]")
91
